Cited source for all entries: ChEMBL document CHEMBL1201862

As shown below, each of these molecules has a reported GI50 value.
# System: UO-31
# Experiment Notes: NCI tumour cell line growth inhibition, 48 h
The source made the active and inactive calls. Rule as the data show it: active = GI50 up to about 1.1 µM and inactive = higher.

Recorded results for 4 molecules are shown here.
Structure Notation: CC(=O)O[C@H]1C(=O)[C@@]2(C)[C@H]([C@H](OC(=O)c3ccncc3)[C@]3(O)C[C@H](OC(=O)[C@H](O)[C@@H](NC(=O)c4ccccc4)c4ccccc4)C(C)=C1C3(C)C)[C@]1(OC(C)=O)CO[C@@H]1C[C@@H]2O
GI50: > 25 µM (inactive)
--
Structure Notation: O=c1cc(-c2ccccc2)oc2c(-c3cc(Cl)cc4c(=O)cc(-c5ccccc5)oc34)cc(Cl)cc12
GI50: 16.8 µM (inactive)
--
Structure Notation: CSc1c(C#N)c(S)n(-c2ccc(Cl)cc2)c(=O)c1C#N
GI50: 27.9 µM (inactive)
--
Structure Notation: C[n+]1ccccc1/C1=c2\cc/c([nH]2)=C(\c2cccc[n+]2C)C2=N/C(=C(/c3cccc[n+]3C)C3C=CC(N3)/C(c3cccc[n+]3C)=C3/C=CC1=N3)C=C2
GI50: > 100 µM (inactive)

Any idea what GI50 came out for COc1cc2c(cc1C1=NC(C)(C)CO1)OCO2 on UO-31?
> 100 µM (inactive)

And COc1cc2c(cc1O)CCN(C)[C@H]2Cc1ccc(Oc2c(O)c(OC)cc3c2C[C@H]2c4c(c(OC)c(OC)c(OC)c4-3)CCN2C)cc1 ?
4.98 µM (inactive)

And CN1S(=O)(=O)N(C)P12(N=P(CP(=NP13(N(C)S(=O)(=O)N1C)N(C)S(=O)(=O)N3C)(c1ccccc1)c1ccccc1)(c1ccccc1)c1ccccc1)N(C)S(=O)(=O)N2C ?
> 100 µM (inactive)

* * *

# System: MDA-N
# Experiment Notes: NCI tumour cell line growth inhibition, 48 h
The source made the active and inactive calls. Cut-off read from the data, not from the text of the source: active = GI50 up to about 1.1 µM and inactive = higher.
// classify into yes (1) = active, no (0) = inactive

Compound: C/C(=N\O)c1ccc(Nc2c3ccccc3nc3occc23)cc1
Class Name: yes (1)

Just curious, what result did CCOC(=O)/C=C(\C(=O)OCC)n1cc(C)c(=O)n(Cc2cn(COCCOC(C)=O)nn2)c1=O get here?
no (0)

And CCOC(=O)C(C(=O)OCC)C(=S)NC1OC(COC(C)=O)C(OC(C)=O)C(OC(C)=O)C1OC(C)=O (configuration not stated) ?
no (0)

And C[n+]1c(-c2ccccc2)cc2/c(=C\c3ccc([N+](=O)[O-])cc3)c3ccccc3n21 ?
no (0)

And CC[C@@]1(O)C(=O)OCc2c1cc1n(c2=O)Cc2cc3cc(OC)ccc3nc2-1 ?
yes (1)

And CC(C)CCNC(=O)c1ccc(CNC(=O)/C=C/c2csc(-c3ccccc3)n2)cc1 ?
no (0)

And COP(=O)(CP(=O)(OC)OCCC(C)CCC=C(C)C)OC (configuration not stated) ?
no (0)

And COc1cc2c3c4c1OCc1c5c(cc(c1-4)CC3[N+](C)(C)CC2)OCO5 (configuration not stated) ?
no (0)

And CSc1ccc(/C=C/c2ccnc3ccccc23)cc1 ?
no (0)

And O=c1ccn(-c2ccccn2)c(=O)n1-c1ccccn1 ?
no (0)

And Clc1cc2ncn(C3CCCCO3)c2cc1Cl (configuration not stated) ?
no (0)

And O=c1c2ccccc2nc2sc(/N=C/C=C/c3ccccc3)nn12 ?
no (0)

And CC1(C)OC(=O)C(=Cc2ccc([N+](=O)[O-])s2)C(=O)O1 ?
no (0)

And Clc1cc(OC23CC4CC(CC(C4)C2)C3)nc(Cl)n1 ?
no (0)

And C[N+]1(CCN[N+]2(C)CCCCC2)CCc2ccccc2C1 (configuration not stated) ?
no (0)

And c1csc(-c2ccc(-c3cccc4nsnc34)s2)c1 ?
no (0)

And Cc1ccc2c(ccc3c[n+]4ccccc4c(C)c32)c1.[O-][Cl+3]([O-])([O-])[O-] ?
no (0)

And CN(CCCNC(=O)c1c2ccc3ccccc3c2nn1C)CCCNC(=O)c1c2ccc3ccccc3c2nn1C ?
no (0)

And COc1cc(OC)nc(Nc2c(C#N)c3nc4ccccc4n3c3ccccc23)n1 ?
no (0)

And CCCCS(=O)(=O)CCC(N)C(=O)O (configuration not stated) ?
no (0)

And Clc1ccc(OCc2nnc(COc3ccc(OCc4nnc(COc5ccc(Cl)cc5Cl)o4)c(Cl)c3)o2)c(Cl)c1 ?
no (0)

And Cc1cc2c(cc1Cl)Sc1n[nH]c(=O)n1S2(=O)=O ?
no (0)

* * *

# Test system: UACC-62
# Experiment Notes: NCI tumour cell line growth inhibition, 48 h
The source made the active and inactive calls. No stated cut-off is given here; in the data, active = GI50 up to about 1.1 µM and inactive = higher.
Quantity Kind: GI50

Recorded results for 5 compounds are shown here.
Compound: N#CC(NNC(=O)Cc1ccccc1)c1c(O)ccc2ccccc12 (stereo not drawn)
GI50: 3.08 µM (inactive)
//
Compound: NC(=O)C(=CNC(=S)Nc1ccccc1)C(N)=O
GI50: > 100 µM (inactive)
//
Compound: Cc1nn(-c2ccccc2)c2c1C(c1cc3ccccc3nc1Cl)NC(=O)N2 (stereo not drawn)
GI50: 19 µM (inactive)
//
Compound: CCOC(=O)c1c(C)c(C)n2c1NC(=O)C2
GI50: > 60.3 µM (inactive)
//
Compound: Cc1nn(-c2cc(Cl)ccc2[N+](=O)[O-])c(C)c1Cl
GI50: > 100 µM (inactive)

For NC(=O)c1ncn2c1CNC(=O)C2 , what is its reported GI50?
> 100 µM (inactive)

And Nc1cc2c3c(cccc3c1)C(=O)N(c1ccc(OCCN3CCCCC3)cc1)C2=O ?
19.1 µM (inactive)

* * *

# Test system: NCI/ADR-RES
# Experiment Notes: NCI tumour cell line growth inhibition, 48 h
Activity calls are given as the source filed them. Rule as the data show it: active = GI50 up to about 1.1 µM and inactive = higher.
Quantity Kind: GI50

Recorded results for 4 compounds are shown here.
Compound: O=C(O)C(Cc1cc(I)c(O)c(I)c1)C1CCCCC1 (stereo not given)
Tested System: NCI/ADR-RES
GI50: 37.4 µM (inactive)

Compound: Cc1ccccc1OC(C)C(=O)NN1C(=O)CC(=O)N(c2ccc(Cl)cc2)C1=S (stereo not given)
Tested System: NCI/ADR-RES
GI50: 29.4 µM (inactive)

Compound: Cc1c(C(C)C)cc(OCCO)cc1C(C)C
Tested System: NCI/ADR-RES
GI50: 40 µM (inactive)

Compound: COC(=O)c1ccc(C(=O)NC(Cc2ccc(Oc3cc(CC(NC(=O)c4ccccc4C(=O)OC)C(=O)OC)ccc3OC)cc2)C(=O)OC)cc1 (stereo not given)
Tested System: NCI/ADR-RES
GI50: > 100 µM (inactive)

For CCN(CC)c1ccc2nc3ccc(/N=N/c4c(O)ccc5ccccc45)cc3[n+](-c3ccccc3)c2c1 , what is its reported GI50?
> 100 µM (inactive)

And Nc1cccc(S(=O)(=O)Nc2nnc(S(N)(=O)=O)s2)c1 ?
> 100 µM (inactive)

And O=C1OCN(c2ccccc2)C12CCN(Cc1ccccc1)CC2 ?
50.4 µM (inactive)

And CCOC(=O)c1cc2ncccc2c2ccccc12 ?
> 100 µM (inactive)

And CCCNC(=S)N/N=C(\C)c1ccc(S(=O)(=O)N(C)c2ccccc2)cc1 ?
> 89.3 µM (inactive)

And c1ccc2c(c1)CCN1CCc3c([nH]c4ccccc34)C21 (stereo not given) ?
22.1 µM (inactive)

* * *

# Tested on: NCI-H522
# Experiment Notes: NCI tumour cell line growth inhibition, 48 h
The source made the active and inactive calls. Cut-off read from the data, not from the text of the source: active = GI50 up to about 1.1 µM and inactive = higher.
Quantity Kind: GI50

Recorded results for 3 molecules are shown here.
Molecule: CC1(C2CCC3(C)C(C2)C3Sc2ccccc2)OCCO1 (stereo unspecified)
GI50: 18.9 µM (inactive)
--
Molecule: c1ccc2[nH]c(CNc3ccc(C4C[Se]N=N4)cc3)nc2c1 (stereo unspecified)
GI50: 29 µM (inactive)
--
Molecule: N=C(N)N/N=C/c1c(-c2ccccc2[N+](=O)[O-])nc2sccn12
GI50: 17 µM (inactive)

For COc1ccc(-c2nc(N3CCCC3)no2)cc1 , what is its reported GI50?
39.1 µM (inactive)

And N#CC1=C(N)OC2=C(CCCc3ccccc32)C1c1ccc([N+](=O)[O-])cc1 (stereo unspecified) ?
8.22 µM (inactive)

And CC(=O)Nc1ccc(-c2nnc(SCC(=O)Nc3ccc(Cl)cc3Cl)o2)cc1 ?
20.7 µM (inactive)

And C=C(Br)CN(C(C)=O)C1CCCCC1 ?
> 100 µM (inactive)

And C#CCN(N=O)C(=O)NCCCC(NC(C)=O)C(=O)NCc1ccccc1 (stereo unspecified) ?
29.9 µM (inactive)

* * *

# Test system: HCC 2998
# Experiment Notes: NCI tumour cell line growth inhibition, 48 h
The source made the active and inactive calls. Rule as the data show it: active = GI50 up to about 1.1 µM and inactive = higher.
As shown below, each of these compounds has a reported GI50 value.

Recorded results for 5 compounds are shown here.
Compound: CNc1ccc(OC)cc1S(=O)(=O)c1ccccc1[N+](=O)[O-]
Result: > 100 µM (inactive)
//
Compound: COC(=O)[C@@]12CCCC(=O)[C@@H]1[C@H]1CCCC[C@H]12
Result: > 100 µM (inactive)
//
Compound: Clc1cc2ncn(C3CCCCO3)c2cc1Cl (centres undefined)
Result: 64.6 µM (inactive)
//
Compound: CN1S(=O)(=O)N(C)P12(N=P(CP(=NP13(N(C)S(=O)(=O)N1C)N(C)S(=O)(=O)N3C)(c1ccccc1)c1ccccc1)(c1ccccc1)c1ccccc1)N(C)S(=O)(=O)N2C
Result: > 100 µM (inactive)
//
Compound: NC(=O)CSc1nc2ccccc2c(=O)n1N
Result: > 100 µM (inactive)

For CN1c2c(O)nc(N)nc2NCC1CCNc1ccc(C(=O)NC(CCC(=O)O)C(=O)O)cc1 (centres undefined) , what is its reported GI50?
993 µM (inactive)

And S=C(NN=C1NCCCCN1)Nc1ccccc1 ?
> 100 µM (inactive)

And O=[N+]([O-])C1(CO)COC2(OC1)c1ccccc1-c1ccccc12 ?
> 100 µM (inactive)

And CCC(C)C(NC(=O)C(CCCC[N+](=N)N)NC(=O)C(CCCC[N+](=N)N)NC(=O)c1ccc(OC)cc1)C(=O)NC(CCCC[N+](=N)N)C(=O)N1CCCC1C(=O)NC(CCCCN)C(=O)NC(CC(C)C)C(N)=O (centres undefined) ?
> 100 µM (inactive)
